This listing pairs sequences with measured PBM binding z-score.
# System: RXRa homodimer (NR concentration 180 nM)
# testDetails: PBM binding z-score (relative to random genomic background probes); higher = stronger binding; sequences stand for … in GC…GCGATTGACAGCGTAGAATGAAGG
observationType: PBM binding z-score

residueSequence	measuredNumber
ACTAGTTAGTCAGCTGAGGTCACACACAATTCGG	4.01
CCTACCAGGCCAATCTGGGTCACTCAAGGCTTGA	1.01
CATCAAAGTTCAACTAAGGTAACGTAAAGCACGC	5.76
TCATATAGGTAAAGGTTAAAGTCGAACGATATGA	3.91
TGGATGAGGTTATAAGATCAGGGAACGTTGCAAA	1.97
ATACCAAGGTGATCGTGAGGTGGTTGATACTAAC	0.48
TCTGCTAGGTCAGTTGGTCAGCGAACGAGCTGCC	0.834
TCTTGTAGCTCAATAGAGGTTAAGAAAGTGCGCT	0.994
TCTTGTAGATCAACAGGAGGTTGAGAAAGATCGA	0.301
TCTATTAGTTGAAGGGCAGCCGACGAGTCCGTTT	0.258
TCTCGGAGGACACGAAAGGTCAGAGTTCGACATC	5.12
GCTGCTAGGTCAGGTAGGTCAGCTAACGGGTACG	2.38
CCTACTAGGCCAAAGGTCATTGATTCCAATGCTC	6.88
CGAACTAGGTAATTGACAGGACAGTGAATAGTAA	-0.137
CCTACTGGGCCATTCAGAGGTCATTCATCATATG	3.37
TGTCAAAGTTCAAAGGTAACGTAGGTATCCACAC	7.19
TCGAGGAGGTTACCAATGGGGCATTCAGCTTTCT	1.83
TCTTGTATATCAAGCAGGTTAAGAAAGCCTGAGT	0.587
TCTTGTAGATCAAGCAGGTTAACAAAGCCTGAGT	0.594
TATACAGGGTCAAAGGCCAGAGTACGAATGTCGA	6.7
CGTCAAAGTTCATCTAAGGTAACGTAAAGCACGC	4.66
AGAACGAGGGCACGCTGAGTTGATATCAGAGTAG	1.32
ATACCAAGGTGATCGTGAGCTCGTTGATACTAAC	0.139
AGTATGAGGTTAAGATCAGGGAAACAGAATACAT	2.42
TCTAGCACGCCAGAGGGTCACTCAAGAGGTACGG	2.41
CCTGCTAGGTCAATGGTTAGCTAAAGCAGCTCGC	1.78

---

# System: RARg:RXRa (NR concentration 270 nM, RXRa partner concentration 90 nM)
# testDetails: PBM binding z-score (relative to random genomic background probes); higher = stronger binding; sequences stand for … in GC…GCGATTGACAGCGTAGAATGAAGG

residueSequence	targetOrTestSystem	PBM binding z-score
ACTATTAGTTGAGACGAGGGCAACCGATAGGTTG	RARg:RXRa (NR concentration 270 nM, RXRa partner concentration 90 nM)	0.833
CCAACTAGGTCAAGAGGTCAAAGTCCGCTTCCCG	RARg:RXRa (NR concentration 270 nM, RXRa partner concentration 90 nM)	8.12
GCTGCTAGGTCAACTGATGATCAGCTAAAGCTCG	RARg:RXRa (NR concentration 270 nM, RXRa partner concentration 90 nM)	4.46
ACTAGCAAGCCAAGTTTGGGTCACTCAAACAAAG	RARg:RXRa (NR concentration 270 nM, RXRa partner concentration 90 nM)	0.717
AATACAGGGTCATCGTAGGACAGAGTACGCACAG	RARg:RXRa (NR concentration 270 nM, RXRa partner concentration 90 nM)	5.62
AATACCGGGTCATCGTAGGCCAGAGTACGCACAG	RARg:RXRa (NR concentration 270 nM, RXRa partner concentration 90 nM)	4.84
CGAACTAGGTCACAACAGGACAGTGAAGGATGAT	RARg:RXRa (NR concentration 270 nM, RXRa partner concentration 90 nM)	4.09
CGGACTAGGTCAGAACAGGACAGTGAAGGATGAT	RARg:RXRa (NR concentration 270 nM, RXRa partner concentration 90 nM)	2.4
ATCTCTAAGTAAGACTCAGTTCAGTGAAGAACGC	RARg:RXRa (NR concentration 270 nM, RXRa partner concentration 90 nM)	0.345
GCGACTGGGGCAAAGCAGGTTACCTTAAGGTTGG	RARg:RXRa (NR concentration 270 nM, RXRa partner concentration 90 nM)	0.509
CCTAGCAGGCCAATCTGGGACACTCAAGGCTTGA	RARg:RXRa (NR concentration 270 nM, RXRa partner concentration 90 nM)	-0.31
AGAATGAGGTTATTAAGATCACGGAATTGCGGTC	RARg:RXRa (NR concentration 270 nM, RXRa partner concentration 90 nM)	1.37
CGATCTAGGTCAAGGACAGTGAATCTCCGCACGC	RARg:RXRa (NR concentration 270 nM, RXRa partner concentration 90 nM)	3.6
TCGAGTAGGTTAGGGGCATTGAGAATGGCGTCGA	RARg:RXRa (NR concentration 270 nM, RXRa partner concentration 90 nM)	0.14
CAGCCTAGGTCAGGGCCAGTATGGGAGGAACGTT	RARg:RXRa (NR concentration 270 nM, RXRa partner concentration 90 nM)	3.22
CCTACTCGGCCATTCAGAGGTCATTGATCATATG	RARg:RXRa (NR concentration 270 nM, RXRa partner concentration 90 nM)	4.17
CGACCTAGGTCAAGGACAGTGAATCTCCGCACGC	RARg:RXRa (NR concentration 270 nM, RXRa partner concentration 90 nM)	4.65
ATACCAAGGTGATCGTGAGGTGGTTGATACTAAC	RARg:RXRa (NR concentration 270 nM, RXRa partner concentration 90 nM)	0.588
ATCTCGAGGTAACAAGTTCAGTGAAAGAGAGGAC	RARg:RXRa (NR concentration 270 nM, RXRa partner concentration 90 nM)	2.13
AGAATGACGTTACCAAAGATCAGGGAAACGCTTG	RARg:RXRa (NR concentration 270 nM, RXRa partner concentration 90 nM)	0.085
CTGGAAAGGTCGTGCTCAGGTGAGTATACCAAAC	RARg:RXRa (NR concentration 270 nM, RXRa partner concentration 90 nM)	5.06
CCTGCTAGGTCAATGGTCAACTAAAGCAGCTCGC	RARg:RXRa (NR concentration 270 nM, RXRa partner concentration 90 nM)	3.77
TATCGGAGGACACGAAGGTCAGAGCTTTCCAGAG	RARg:RXRa (NR concentration 270 nM, RXRa partner concentration 90 nM)	3.17
CGTCCAAGGTCAAAGGAGGTCAGTGAAGACAGAT	RARg:RXRa (NR concentration 270 nM, RXRa partner concentration 90 nM)	6.67
TAGCCTAGGTCATTGGGCCAGTAGAGTACGCATC	RARg:RXRa (NR concentration 270 nM, RXRa partner concentration 90 nM)	3.83
AATACACGGTCACTAGGCCAGAGTAGGTACGAAT	RARg:RXRa (NR concentration 270 nM, RXRa partner concentration 90 nM)	1.78
CCTAGCAGGCCAATCTGAGTCACTCAAGGCTTGA	RARg:RXRa (NR concentration 270 nM, RXRa partner concentration 90 nM)	-0.539
TCATATAGGTAAACAGGTGAAACTCCGTAAGTTA	RARg:RXRa (NR concentration 270 nM, RXRa partner concentration 90 nM)	0.806
AATAGAGGGTCATCGTAGGCCAGAGTACGCACAG	RARg:RXRa (NR concentration 270 nM, RXRa partner concentration 90 nM)	5.35
CCGACTGGGGCATAAGGTTACGATAAGCCAGCCC	RARg:RXRa (NR concentration 270 nM, RXRa partner concentration 90 nM)	1.92
AGTCAAAGTTCACTTGGTAACGTAAGATTCAGCT	RARg:RXRa (NR concentration 270 nM, RXRa partner concentration 90 nM)	4.88
TCTTGTAGATCAGAGGTTAAGAAAGCCGAAGCCT	RARg:RXRa (NR concentration 270 nM, RXRa partner concentration 90 nM)	0.522
CCTACTGGACCAAAGGTCATTGATTCCAATGCTC	RARg:RXRa (NR concentration 270 nM, RXRa partner concentration 90 nM)	5.27
TCATATAGGTAATACAGGTGAAAATCGGCATCTA	RARg:RXRa (NR concentration 270 nM, RXRa partner concentration 90 nM)	0.729
ACAGACAGGTGAGTGACGGTAACTCAGCTGGACG	RARg:RXRa (NR concentration 270 nM, RXRa partner concentration 90 nM)	0.269
GCTGCTAGGTCAGGTTTGTCAGCTAACGGGTACG	RARg:RXRa (NR concentration 270 nM, RXRa partner concentration 90 nM)	2.03
TAGCCTAGGTCATTGGTCCAGTATAGTACGCATC	RARg:RXRa (NR concentration 270 nM, RXRa partner concentration 90 nM)	3.61
GGAACGAGGGCAAAGTTGATAGGATCTGTCGACG	RARg:RXRa (NR concentration 270 nM, RXRa partner concentration 90 nM)	2.19
CGTACAAGGTCATAGGAGGTCAGTGAAGACAGAT	RARg:RXRa (NR concentration 270 nM, RXRa partner concentration 90 nM)	6.72
CGGACTGGGGCAGAAAGGTTACCATACCATCCGG	RARg:RXRa (NR concentration 270 nM, RXRa partner concentration 90 nM)	1.79
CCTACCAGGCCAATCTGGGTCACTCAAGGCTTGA	RARg:RXRa (NR concentration 270 nM, RXRa partner concentration 90 nM)	1.37
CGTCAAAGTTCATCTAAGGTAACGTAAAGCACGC	RARg:RXRa (NR concentration 270 nM, RXRa partner concentration 90 nM)	5.77
AATTACGGGTCAACGAGGTTATAGCACGCGTATA	RARg:RXRa (NR concentration 270 nM, RXRa partner concentration 90 nM)	5.71
TGTTGTAGATCAACAGGAGGTTAAGAAAGATCGA	RARg:RXRa (NR concentration 270 nM, RXRa partner concentration 90 nM)	1.06
CACACTAGGTCACGAAAGGTCAAAGTCGAATGAC	RARg:RXRa (NR concentration 270 nM, RXRa partner concentration 90 nM)	7.95
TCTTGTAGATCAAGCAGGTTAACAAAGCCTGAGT	RARg:RXRa (NR concentration 270 nM, RXRa partner concentration 90 nM)	0.253
ATAAGTAGGTTATCGGGTCATTCAGTTTGCGCAT	RARg:RXRa (NR concentration 270 nM, RXRa partner concentration 90 nM)	3.44
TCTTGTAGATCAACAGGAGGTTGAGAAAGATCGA	RARg:RXRa (NR concentration 270 nM, RXRa partner concentration 90 nM)	0.156
TCATATAGGTAAATGCTAGGTGAAAGGCCGATCT	RARg:RXRa (NR concentration 270 nM, RXRa partner concentration 90 nM)	0.683
CAGACTAGGTCAAGGTCAAAGTCGGTTTGTGCCA	RARg:RXRa (NR concentration 270 nM, RXRa partner concentration 90 nM)	6.12
TAGCCTAGGTCAGATCGAGCCAGTATACGCTATA	RARg:RXRa (NR concentration 270 nM, RXRa partner concentration 90 nM)	2.36
